Target: UniProt O95259
Sequence (O95259 1-989): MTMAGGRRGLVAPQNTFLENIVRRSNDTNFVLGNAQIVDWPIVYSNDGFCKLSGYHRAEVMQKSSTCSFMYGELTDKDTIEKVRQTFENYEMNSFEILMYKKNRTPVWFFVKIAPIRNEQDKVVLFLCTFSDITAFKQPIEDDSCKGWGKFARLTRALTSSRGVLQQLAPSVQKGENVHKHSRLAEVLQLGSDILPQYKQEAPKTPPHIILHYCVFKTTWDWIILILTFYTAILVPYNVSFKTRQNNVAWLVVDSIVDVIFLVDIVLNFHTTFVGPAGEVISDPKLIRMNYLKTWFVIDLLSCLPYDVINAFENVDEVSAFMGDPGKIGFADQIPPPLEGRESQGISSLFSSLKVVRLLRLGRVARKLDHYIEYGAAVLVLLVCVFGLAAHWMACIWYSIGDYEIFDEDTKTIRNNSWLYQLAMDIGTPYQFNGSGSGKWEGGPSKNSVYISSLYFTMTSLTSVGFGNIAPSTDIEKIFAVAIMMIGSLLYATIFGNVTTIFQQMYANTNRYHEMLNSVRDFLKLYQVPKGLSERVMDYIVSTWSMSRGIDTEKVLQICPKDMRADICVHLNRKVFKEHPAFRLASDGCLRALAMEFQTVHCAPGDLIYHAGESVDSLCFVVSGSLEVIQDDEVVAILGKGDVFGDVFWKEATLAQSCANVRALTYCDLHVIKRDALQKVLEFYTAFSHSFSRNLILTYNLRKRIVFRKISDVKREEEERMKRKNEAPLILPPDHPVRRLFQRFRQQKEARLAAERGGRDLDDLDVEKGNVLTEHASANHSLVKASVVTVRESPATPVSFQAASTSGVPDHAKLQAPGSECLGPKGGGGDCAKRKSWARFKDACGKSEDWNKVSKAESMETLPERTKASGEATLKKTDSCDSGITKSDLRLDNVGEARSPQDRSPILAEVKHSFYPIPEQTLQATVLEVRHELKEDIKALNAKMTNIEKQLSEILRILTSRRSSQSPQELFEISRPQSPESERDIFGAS
Test: hEag1 channels expressed in Xenopus oocytes
Format: cell-based
pIC50: −log10 of the molar value.
Measured endpoint: pIC50

Query: For the record "COc1ccc(CCN2CCC(Nc3nc4ccccc4n3Cc3ccc(F)cc3)CC2)cc1" , what value of pIC50 is listed for UniProt O95259?
Response: ~5.82
